System: Vero (kidney) cells
Assay name: Mammalian cell toxicity, Promega CellTiter 96, kidney cells
Format: cell-based
Applied conditions: 100× MIC, 24 h
Protocol: Cytotoxicity was determined using non-cancerous Vero cells (kidney-african green monkey) and liver cells (Hep-2G) in accordance with Promega CellTiter 96 Non-Radioactive Cell Proliferation Assay (cat # G4000). Compounds were diluted in media and all assays were done in triplicate. […] Formazan product was scored spectrophotometrically with an automatic plate reader set at 570 nm. […] Wells containing 1% DMSO and no drug were used as a negative control and the average absorbance at 570 nm were set to 100%. […]
Property name: cell toxicity

- C(=N\Nc1ccccc1)/c1ccncc1: toxic
- C(=N\Nc1ccccc1)/c1cccnc1: toxic

// data source = patent US20180072675A1
